molecular target: Pyruvate kinase PKM (Homo sapiens, UniProt P14618); experiment: Activation of human PKM2 assessed as ATP product formation after 1 hr by luminescent pyruvate kinase-luciferase coupled assay
Sequence (P14618 whole entry): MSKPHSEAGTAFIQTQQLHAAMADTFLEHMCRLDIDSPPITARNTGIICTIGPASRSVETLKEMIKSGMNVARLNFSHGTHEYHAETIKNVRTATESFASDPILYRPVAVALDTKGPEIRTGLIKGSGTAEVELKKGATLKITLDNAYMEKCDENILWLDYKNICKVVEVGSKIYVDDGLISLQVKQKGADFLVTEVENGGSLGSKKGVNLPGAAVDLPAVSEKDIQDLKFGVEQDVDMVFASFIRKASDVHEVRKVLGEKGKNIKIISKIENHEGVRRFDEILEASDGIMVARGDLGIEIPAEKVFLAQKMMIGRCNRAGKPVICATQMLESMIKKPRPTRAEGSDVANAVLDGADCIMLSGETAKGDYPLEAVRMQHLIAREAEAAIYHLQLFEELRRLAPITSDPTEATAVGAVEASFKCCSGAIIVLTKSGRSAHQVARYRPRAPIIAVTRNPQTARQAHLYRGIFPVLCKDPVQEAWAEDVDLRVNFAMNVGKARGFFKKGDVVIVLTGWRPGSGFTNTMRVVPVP
Listing of entries alongside the reported pEC50.
Interpret pEC50 as the negative base-10 log of the concentration measured in mol/L.

Illustrative cases are given below, each with its answer.
> print(dat)
                           molecular.string  quantity.measured  reading
1  Cc1ccc(NS(=O)(=O)c2cc3c(cc2Br)CCC(=O)N3)cc1C              pEC50     5.18
2  O=C1CCc2cc(S(=O)(=O)Nc3ccc(F)c(Cl)c3)ccc2N1              pEC50     6.54
3  Cc1ccc(NS(=O)(=O)c2ccc3c(c2)CCC(=O)N3)cc1C              pEC50     6.10
4   O=C1CCc2cc(S(=O)(=O)Nc3cccc(F)c3)ccc2N1              pEC50     6.10

Q: Fill in: pEC50 of Cc1ccc(NS(=O)(=O)c2ccc3c(c2)CCC(=O)N3)cc1Cl is ___
A: 7.00

All figures here come from ChEMBL document CHEMBL1938233.
